Ref: paper PMC3313489

# STUDY TARGET: PMPMEase (Sus scrofa)
# Sequence (Q29550 19-566): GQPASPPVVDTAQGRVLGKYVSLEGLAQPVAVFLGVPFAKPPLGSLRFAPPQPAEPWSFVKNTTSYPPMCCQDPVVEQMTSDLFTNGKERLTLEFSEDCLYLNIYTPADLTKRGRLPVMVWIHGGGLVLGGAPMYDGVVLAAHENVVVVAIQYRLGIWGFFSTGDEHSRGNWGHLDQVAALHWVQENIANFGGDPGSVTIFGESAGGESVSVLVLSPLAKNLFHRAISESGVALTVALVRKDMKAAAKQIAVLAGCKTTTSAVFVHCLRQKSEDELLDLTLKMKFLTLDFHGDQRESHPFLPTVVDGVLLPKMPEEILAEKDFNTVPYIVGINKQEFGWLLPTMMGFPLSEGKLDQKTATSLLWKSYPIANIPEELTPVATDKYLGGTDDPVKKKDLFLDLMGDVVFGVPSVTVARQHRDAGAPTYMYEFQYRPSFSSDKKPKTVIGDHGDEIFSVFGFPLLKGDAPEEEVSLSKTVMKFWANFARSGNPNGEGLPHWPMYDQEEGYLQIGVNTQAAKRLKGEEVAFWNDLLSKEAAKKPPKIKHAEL
# EXPERIMENTAL DETAILS: PMPMEase enzyme assay with RD-PNB substrate
# Type: biochemical, porcine
pKi: −log10 of the molar value.
MEASURED PARAMETER: pKi

CCCCC[C@H](O)/C=C/[C@H]1C=CC(=O)[C@@H]1CCCCCCC(=O)O [Prostaglandin A1]
< 4.55
CCCCCCCCCCCCCCCCCC(=O)O [Stearic acid]
< 4.55
CCCCCCCCCCCCCC(=O)O [Myristic acid]
5.55
CCCCCCCC/C=C\CCCCCCCC(=O)O [Oleic acid]
5.82
CCCCC[C@H](O)/C=C/[C@@H]1[C@@H](C/C=C\CCCC(=O)O)[C@@H](O)C[C@H]1O [Prostaglandin F2α]
< 4.55

// below: pKi requested for another molecule
Input CCCCCCCC(=O)O [Octanoic acid] . Output pKi: < 4.55
